Value source: the supplement of paper PMC12783771

B1: library; numbered along this chain (parent)
chain: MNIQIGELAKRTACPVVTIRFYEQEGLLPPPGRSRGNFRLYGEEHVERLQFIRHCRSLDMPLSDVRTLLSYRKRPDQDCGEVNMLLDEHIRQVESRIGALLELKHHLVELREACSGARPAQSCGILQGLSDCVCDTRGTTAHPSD

Variants of: B1
measurement protocol: sfGFP reporter fluorescence (15 h) (µM FITC); higher = stronger transcriptional activation
experimental context: library round: Round 0; ligand: 30 µM Zn
result type: sfGFP reporter fluorescence

| var | result |
| --- | --- |
| P61Q | 1.07 |
| C79Q | 0.0566 |
| R33L | 0.108 |
| Y41N | 0.0597 |
| K104L | 1.11 |
| P30E | 0.808 |
| I97V | 0.338 |
| L62I | 0.88 |
| E43D | 0.744 |
| P61N K104V G128M | 3.13 |

Continue with the next variant.
Q. Given L27M , state its recorded sfGFP reporter fluorescence.
A. 0.743
